# RUN_DESCRIPTION: Cytotoxic activity on normal cells, MTT viability assay
# Assay type: cell-based, human
# CONDITION_SET: human, MRC-5 normal lung fibroblast cells; MRC-5; sample conc. 156.8 µM; Table S10
MEASURE: viability at 24 h, 156.8 µM (%)
Please give a number only; it is taken to be in %.

Input line: Give a short answer stating reported viability at 24 h, 156.8 µM for CC(=NNc1nc(N2CCOCC2)nc(N2CCOCC2)n1)c1ccccc1N [DMAT] .
Output line: 99.8

* * *

# RUN_DESCRIPTION: Cytotoxic activity on normal cells, MTT viability assay
# Assay type: cell-based, human
# CONDITION_SET: human, MRC-5 normal lung fibroblast cells; MRC-5; sample conc. 19.5 µM; Table S12
MEASURE: viability at 24 h, 19.5 µM (%)
Please give a number only; it is taken to be in %.

Input line: Give a short answer stating reported viability at 24 h, 19.5 µM for CC(=NNc1nc(N2CCOCC2)nc(N2CCOCC2)n1)c1ccccc1O .
Output line: 100

* * *

# RUN_DESCRIPTION: DPPH radical scavenging assay
# Format: biochemical
# CONDITION_SET: Conc. 40 μg/mL
Could you please report measured DPPH Scavenging % for the items listed next?
Please give a number only; it is taken to be in %.

Input line: Give a short answer stating reported DPPH Scavenging % for CC(=NNc1nc(N2CCOCC2)nc(N2CCOCC2)n1)c1ccccc1[O-].O=[N+]([O-])[O-].[Cu+2] [Complex 3, [Cu(DMOT)(NO3)]] .
Output line: 68.9

Input line: Give a short answer stating reported DPPH Scavenging % for CC(=NNc1nc(N2CCOCC2)nc(N2CCOCC2)n1)c1ccccc1[O-].CC(=O)[O-].[Cu+2] [Complex 2, [Cu(DMOT)(CH3COO)]] .
Output line: 67.84

Input line: Give a short answer stating reported DPPH Scavenging % for CC(=NNc1nc(N2CCOCC2)nc(N2CCOCC2)n1)c1ccccc1N .
Output line: 70.89

Input line: Give a short answer stating reported DPPH Scavenging % for CC(=NNc1nc(N2CCOCC2)nc(N2CCOCC2)n1)c1ccccc1O .
Output line: 47.09

Input line: Give a short answer stating reported DPPH Scavenging % for O=C1O[C@H]([C@@H](O)CO)C(O)=C1O [Ascorbic Acid, ascorbic acid, reference compound] .
Output line: 83.09

* * *

# Test system: normal human lung fibroblast MRC-5 cells
# RUN_DESCRIPTION: Cytotoxic activity on normal cells, MTT viability assay
# Format: cell-based
# CONDITION_SET: MRC-5 cells, 24 h, MTT
Could you please report measured CC50 for the items listed next?
Please give a number only; it is taken to be in µM.

Input line: Give a short answer stating reported CC50 for CC(=NNc1nc(N2CCOCC2)nc(N2CCOCC2)n1)c1ccccc1[O-].CC(=O)[O-].[Cu+2] [Complex 2, [Cu(DMOT)(CH3COO)]] .
Output line: 101

Input line: Give a short answer stating reported CC50 for CC(=NNc1nc(N2CCOCC2)nc(N2CCOCC2)n1)c1ccccc1[O-].O=[N+]([O-])[O-].[Cu+2] [Complex 3, [Cu(DMOT)(NO3)]] .
Output line: 173

* * *

# System: lung carcinoma A-549 cell line
# RUN_DESCRIPTION: Anticancer activity, MTT viability assay
# Format: cell-based
# CONDITION_SET: Homo sapiens, A549; A-549 cells, 24 h, MTT
MEASURE: IC50 (µM)
Please give a number only; it is taken to be in µM.

Input line: Give a short answer stating reported IC50 for CC(=NNc1nc(N2CCOCC2)nc(N2CCOCC2)n1)c1ccccc1O .
Output line: 565

Input line: Give a short answer stating reported IC50 for CC(=NNc1nc(N2CCOCC2)nc(N2CCOCC2)n1)c1ccccc1N .
Output line: 551
